TEST_TARGET: Genome polyprotein (dengue virus type 2, UniProt P12823)
Square brackets hold non-standard residues; d marks the D form. Peptide text beside a SMILES is read from it. * marks the point of attachment. ξ: configuration not given here. Phg = N[C@H](C(=O)O)c1ccccc1; ξTic = O=C(O)C1Cc2ccccc2CN1; 4Abz = Nc1ccc(C(=O)O)cc1; ξPra = C#CCC(N)C(=O)O; Aib = CC(C)(N)C(=O)O; Bz = O=C(c1ccccc1)*; βAla = NCCC(=O)O
In plain terms, low IC50, meaning strictly below 40 µM, gives 1, and everything else gives -1.

Previously resolved entries follow.
MOLECULE	TEST_TARGET	GROUP_LABEL
CC(C)(NC(=O)[C@H](CCCCN)NC(=O)[C@H](CCCNC(=N)N)NC(=O)c1ccccc1)C(N)=O (Bz-Arg-Lys-[Aib]-NH2)	Genome polyprotein (dengue virus type 2, UniProt P12823)	-1
N=C(N)NCCC[C@H](NC(=O)c1ccccc1)C(=O)N[C@@H](CCCCN)C(=O)N1CCC[C@H]1C(N)=O (Bz-Arg-Lys-Pro-NH2)	Genome polyprotein (dengue virus type 2, UniProt P12823)	-1

IN: Quick check: does N=C(N)NCCC[C@H](NC(=O)c1ccccc1)C(=O)N[C@@H](CCCCN)C(=O)Nc1ccc(C(N)=O)cc1 (Bz-Arg-Lys-[4Abz]-NH2) have IC50 under 40 µM?
OUT: -1

IN: # strict comparison: is reported IC50 < 40 µM? input = N=C(N)NCCC[C@H](NC(=O)c1ccccc1)C(=O)N[C@@H](CCCCN)C(=O)N[C@H](C(N)=O)c1ccccc1 (Bz-Arg-Lys-[Phg]-NH2)
OUT: 1

IN: Please indicate whether the reported IC50 of N=C(N)NCCC[C@H](NC(=O)c1ccccc1)C(=O)N[C@@H](CCCCN)C(=O)N1Cc2ccccc2CC1C(N)=O (stereo partly drawn) (Bz-Arg-Lys-[ξTic]-NH2) is strictly below 40 µM.
OUT: -1

IN: Is the reported IC50 for C[C@@H](O)[C@H](NC(=O)[C@H](CCCCN)NC(=O)[C@H](CCCNC(=N)N)NC(=O)c1ccccc1)C(N)=O (Bz-Arg-Lys-Thr-NH2) strictly below 40 µM?
OUT: -1

IN: Lab log: compare recorded IC50 with 40 µM; is it strictly lower for C#CCC(NC(=O)[C@H](CCCCN)NC(=O)[C@H](CCCNC(=N)N)NC(=O)c1ccccc1)C(N)=O (stereo partly drawn) (Bz-Arg-Lys-[ξPra]-NH2) ?
OUT: 1

IN: Criterion: IC50 strictly below 40 µM. Is it met by N=C(N)NCCC[C@H](NC(=O)c1ccccc1)C(=O)N[C@@H](CCCCN)C(=O)NCCC(N)=O (Bz-Arg-Lys-[βAla]-NH2) ?
OUT: -1

IN: Please indicate whether the reported IC50 of N=C(N)NCCC[C@H](NC(=O)c1ccccc1)C(=O)N[C@@H](CCCCN)C(=O)NCC(N)=O (Bz-Arg-Lys-Gly-NH2) is strictly below 40 µM.
OUT: 1

====

TEST_TARGET: Genome polyprotein (dengue virus type 2) (UniProt P12823)
ASSAY_COMMENT: Inhibition of Dengue virus serotype 2 NS2B-NS3 protease at 50 uM by homogeneous fluorimetric assay
Peptide text beside a SMILES is read from it. * marks the point of attachment. Bz = O=C(c1ccccc1)*
ASSAY_METRIC: inhibition (%)
One number for each entry, in %.

Some solved entries appear below for comparison.
COMPOUND	ASSAY_METRIC	VAL
CSCC[C@H](NC(=O)[C@H](CCCCN)NC(=O)[C@H](CCCNC(=N)N)NC(=O)c1ccccc1)C(N)=O (Bz-Arg-Lys-Met-NH2)	inhibition	45
N=C(N)NCCC[C@H](NC(=O)c1ccccc1)C(=O)N[C@@H](CCCCN)C(=O)N[C@@H](Cc1ccc(O)cc1)C(N)=O (Bz-Arg-Lys-Tyr-NH2)	inhibition	82.3

IN: // inhibition lookup, key: CCCC[C@@H](NC(=O)[C@H](CCCCN)NC(=O)[C@H](CCCNC(=N)N)NC(=O)c1ccccc1)C(N)=O
OUT: 72.7

====

TEST_TARGET: UniProt P00734
ASSAY_COMMENT: Inhibition of thrombin (unknown origin) at 25 uM by homogeneous fluorimetric assay
Active and inactive are the calls of the source. The calls are words filed in the database; no cut-off is given here. Square brackets hold non-standard residues; d marks the D form. Peptide text beside a SMILES is read from it. * marks the point of attachment. Phg = N[C@H](C(=O)O)c1ccccc1; 3Abz = Nc1cccc(C(=O)O)c1; 4Abz = Nc1ccc(C(=O)O)cc1; Nva = CCC[C@H](N)C(=O)O; 2Abz = Nc1ccccc1C(=O)O; Aib = CC(C)(N)C(=O)O; Bz = O=C(c1ccccc1)*
ASSAY_METRIC: inhibition

COMPOUND	inhibition
N=C(N)NCCC[C@H](NC(=O)c1ccc(/C=C2\SC(=O)N(C3CCCC3)C2=O)cc1)C(=O)N[C@@H](CCCCN)C(=O)N1Cc2ccccc2CC1C(N)=O (stereo not given in full)	7.6%
N#C/C(=C\c1ccc(C(=O)N[C@@H](CCCNC(=N)N)C(=O)N[C@@H](CCCCN)C(=O)N2Cc3ccccc3CC2C(N)=O)cc1)C(=O)NC1CC1 (stereo not given in full)	inactive
CC(C)C[C@H](NC(=O)[C@H](CCCCN)NC(=O)[C@H](CCCNC(=N)N)NC(=O)c1ccccc1)C(N)=O (Bz-Arg-Lys-Leu-NH2)	5.9%
CSCC[C@H](NC(=O)[C@H](CCCCN)NC(=O)[C@H](CCCNC(=N)N)NC(=O)c1ccccc1)C(N)=O (Bz-Arg-Lys-Met-NH2)	6.2%
N=C(N)NCCC[C@H](NC(=O)c1ccccc1)C(=O)N[C@@H](CCCCN)C(=O)N[C@@H](Cc1c[nH]c2ccccc12)C(N)=O (Bz-Arg-Lys-Trp-NH2)	inactive
N=C(N)NCCC[C@H](NC(=O)c1ccccc1)C(=O)N[C@@H](CCCCN)C(=O)Nc1ccc(C(N)=O)cc1 (Bz-Arg-Lys-[4Abz]-NH2)	9.2%
CC(C)(NC(=O)[C@H](CCCCN)NC(=O)[C@H](CCCNC(=N)N)NC(=O)c1ccccc1)C(N)=O (Bz-Arg-Lys-[Aib]-NH2)	inactive
N=C(N)NCCC[C@H](NC(=O)c1ccc(/C=C2\SC(=O)N(C3CCCC3)C2=O)cc1)C(=O)N[C@@H](CCCCN)C(=O)N[C@H](C(N)=O)c1ccccc1	9.2%

For every item below, please supply its inhibition.
1. N=C(N)NCCC[C@H](NC(=O)c1ccccc1)C(=O)N[C@@H](CCCCN)C(=O)N[C@H](C(N)=O)c1ccccc1 (Bz-Arg-Lys-[Phg]-NH2)
2. N=C(N)NCCC[C@H](NC(=O)c1ccccc1)C(=O)N[C@@H](CCCCN)C(=O)NCC(N)=O (Bz-Arg-Lys-Gly-NH2)
3. CCC[C@H](NC(=O)[C@H](CCCCN)NC(=O)[C@H](CCCNC(=N)N)NC(=O)c1ccccc1)C(N)=O (Bz-Arg-Lys-[Nva]-NH2)
4. N=C(N)NCCC[C@H](NC(=O)c1ccccc1)C(=O)N[C@@H](CCCCN)C(=O)Nc1ccccc1C(N)=O (Bz-Arg-Lys-[2Abz]-NH2)
5. CCCC[C@@H](NC(=O)[C@H](CCCCN)NC(=O)[C@H](CCCNC(=N)N)NC(=O)c1ccccc1)C(N)=O
6. N=C(N)NCCC[C@H](NC(=O)c1ccccc1)C(=O)N[C@@H](CCCCN)C(=O)N1CCC[C@H]1C(N)=O (Bz-Arg-Lys-Pro-NH2)
7. N=C(N)NCCC[C@H](NC(=O)c1ccccc1)C(=O)N[C@@H](CCCCN)C(=O)Nc1cccc(C(N)=O)c1 (Bz-Arg-Lys-[3Abz]-NH2)

OUT:
1: inactive; 2: 3.5%; 3: inactive; 4: 6.4%; 5: 4.9%; 6: inactive; 7: 5.6%

====

TEST_TARGET: Genome polyprotein (West Nile virus)
ASSAY_COMMENT: Inhibition of West Nile virus […] NS2B-NS3 protease at 50 uM by homogeneous fluorimetric assay
Square brackets hold non-standard residues; d marks the D form. Peptide text beside a SMILES is read from it. * marks the point of attachment. ξ: configuration not given here. 3Pal = N[C@@H](Cc1cccnc1)C(=O)O; Tle = CC(C)(C)[C@H](N)C(=O)O; ξTic = O=C(O)C1Cc2ccccc2CN1; ξChg = NC(C(=O)O)C1CCCCC1; ξPip = O=C(O)C1CCCCN1; ξPra = C#CCC(N)C(=O)O; Bz = O=C(c1ccccc1)*; βAla = NCCC(=O)O
Provide the recorded inhibition for the entries that follow.
One number for each entry, in %.

// known answers, use as guide
COMPOUND	RESULT_UNITS	inhibition
CSCC[C@H](NC(=O)[C@H](CCCCN)NC(=O)[C@H](CCCNC(=N)N)NC(=O)c1ccccc1)C(N)=O (Bz-Arg-Lys-Met-NH2)	%	11.8
N=C(N)NCCC[C@H](NC(=O)c1ccccc1)C(=O)N[C@@H](CCCCN)C(=O)NCCC(N)=O (Bz-Arg-Lys-[βAla]-NH2)	%	19.8
N=C(N)NCCC[C@H](NC(=O)c1ccccc1)C(=O)N[C@@H](CCCCN)C(=O)N1CCC[C@H]1C(N)=O (Bz-Arg-Lys-Pro-NH2)	%	3.6
CC(C)C[C@H](NC(=O)[C@H](CCCCN)NC(=O)[C@H](CCCNC(=N)N)NC(=O)c1ccccc1)C(N)=O (Bz-Arg-Lys-Leu-NH2)	%	18.4
N=C(N)NCCC[C@H](NC(=O)c1ccccc1)C(=O)N[C@@H](CCCCN)C(=O)N[C@@H](Cc1c[nH]c2ccccc12)C(N)=O (Bz-Arg-Lys-Trp-NH2)	%	32.8

List the reported inhibition of each compound below.
1. N=C(N)NCCC[C@H](NC(=O)c1ccc(/C=C2\SC(=O)N(C3CCCC3)C2=O)cc1)C(=O)N[C@@H](CCCCN)C(=O)N[C@H](C(N)=O)c1ccccc1
2. CC[C@H](C)[C@H](NC(=O)[C@H](CCCCN)NC(=O)[C@H](CCCNC(=N)N)NC(=O)c1ccccc1)C(N)=O (Bz-Arg-Lys-Ile-NH2)
3. N=C(N)NCCC[C@H](NC(=O)c1ccccc1)C(=O)N[C@@H](CCCCN)C(=O)N[C@@H](Cc1cccnc1)C(N)=O (Bz-Arg-Lys-[3Pal]-NH2)

OUT:
1. 98.4
2. 14.9
3. 12.5

Give inhibition for each listed item.
1. N=C(N)NCCC[C@H](NC(=O)c1ccccc1)C(=O)N[C@@H](CCCCN)C(=O)N[C@@H](Cc1ccccc1)C(N)=O (Bz-Arg-Lys-Phe-NH2)
2. C#CCC(NC(=O)[C@H](CCCCN)NC(=O)[C@H](CCCNC(=N)N)NC(=O)c1ccccc1)C(N)=O (stereo partly drawn) (Bz-Arg-Lys-[ξPra]-NH2)
3. C[C@H](NC(=O)[C@H](CCCCN)NC(=O)[C@H](CCCNC(=N)N)NC(=O)c1ccccc1)C(N)=O (Bz-Arg-Lys-Ala-NH2)
4. N=C(N)NCCC[C@H](NC(=O)c1ccccc1)C(=O)N[C@@H](CCCCN)C(=O)N1Cc2ccccc2CC1C(N)=O (stereo partly drawn) (Bz-Arg-Lys-[ξTic]-NH2)
5. N=C(N)NCCC[C@H](NC(=O)c1ccccc1)C(=O)N[C@@H](CCCCN)C(=O)N1CCCCC1C(N)=O (stereo partly drawn) (Bz-Arg-Lys-[ξPip]-NH2)
6. N=C(N)NCCC[C@H](NC(=O)c1ccccc1)C(=O)N[C@@H](CCCCN)C(=O)N[C@@H](CO)C(N)=O (Bz-Arg-Lys-Ser-NH2)
7. CC(C)(C)[C@H](NC(=O)[C@H](CCCCN)NC(=O)[C@H](CCCNC(=N)N)NC(=O)c1ccccc1)C(N)=O (Bz-Arg-Lys-[Tle]-NH2)

OUT:
[18.2, 14.3, 26, 17.8, 12.1, 21.9, 11.7]

IN: GET /values?readout=inhibition&item= N=C(N)NCCC[C@H](NC(=O)c1ccccc1)C(=O)N[C@@H](CCCCN)C(=O)NC(C(N)=O)C1CCCCC1 (stereo partly drawn) (Bz-Arg-Lys-[ξChg]-NH2)
OUT: 12.1
